compounds and their reported TGI
tested on: NCI-H460 lung; experiment: NCI tumour cell line growth inhibition, 48 h

Provide TGI, system NCI-H460 lung, entry COC(=O)C(/C(=N\O)C(=O)Nc1cccc(Cl)c1C)c1cnc2ccccc2n1 (stereo not drawn)
> 100 µM

Provide TGI, system NCI-H460 lung, entry `O=C(O)[C@H](c1ccccc1)[C@@H](C(=O)O)c1ccccc1`
> 100 µM

Provide TGI, system NCI-H460 lung, entry `c1c2c(cc(-n3nnc4c3CCCCCC4)c1-n1nnc3c1CCCCCC3)CCCCCC2`
18.9 µM

Provide TGI, system NCI-H460 lung, entry `Oc1[nH]c2ccccc2c1N=NC(=S)Nc1ccc(Cl)cc1`
> 100 µM

Provide TGI, system NCI-H460 lung, entry `O=c1cc(/C=C/c2ccccc2)[nH]c2cc3c(cc12)OCO3`
10.6 µM

Provide TGI, system NCI-H460 lung, entry `O=c1oc2ccccc2[n+]([O-])c1-c1ccccc1`
> 100 µM

Provide TGI, system NCI-H460 lung, entry `CN(C)C(=S)/N=c1\ssc(=S)n1Cc1ccncc1`
31.5 µM

Provide TGI, system NCI-H460 lung, entry `Nc1ccc(/C=C/C(=O)NCc2cc3cc(-c4ccc(C(=O)N5CCC(F)(F)CC5)cc4)cc(-c4ccc(F)cc4)c3o2)cn1`
> 100 µM

Provide TGI, system NCI-H460 lung, entry CCOC(=O)C(NC(=O)c1nc[nH]c1[N+](=O)[O-])C(C)C (stereo not drawn)
> 100 µM

Provide TGI, system NCI-H460 lung, entry `N#CNC(N)=Nc1ccc(Cl)cc1`
> 100 µM

Provide TGI, system NCI-H460 lung, entry `Cc1c2ccccc2cc2ccc3oc([N+](=O)[O-])cc3c12`
> 100 µM

Provide TGI, system NCI-H460 lung, entry `N#Cc1nc(C2CCC2)oc1N`
> 100 µM

Provide TGI, system NCI-H460 lung, entry `Cc1ccc(/C=C2\Cc3c(C)cc(C)cc3C2=O)c(C(=O)O)c1`
> 100 µM

Provide TGI, system NCI-H460 lung, entry `O=C(N/N=C/c1ccccc1O)c1ccccc1`
> 100 µM

Provide TGI, system NCI-H460 lung, entry `C=Cc1ccccc1C1(O)C=CC(OC)(OC)C=C1`
21.9 µM

Provide TGI, system NCI-H460 lung, entry `O=c1c2cc(Br)ccc2nc(CCl)n1-c1ccc(O)c([N+](=O)[O-])c1`
> 100 µM

Provide TGI, system NCI-H460 lung, entry `CCN(C(=O)/C=C/c1ccco1)c1ccccc1`
> 100 µM

Provide TGI, system NCI-H460 lung, entry `O=C(/C=C/c1ccccc1)CC(=O)CCC(=O)Nc1ccc(Cl)cc1`
> 100 µM

Provide TGI, system NCI-H460 lung, entry `Cc1cc(I)cc(CN(C)CCCN2CCCC2)c1O`
38.4 µM

====

system: NCI-H460 lung
Bench note: report the call from 1.0 = active, 0.0 = inactive

A selection of reference data follows.
* COc1ccc(C(=O)c2ccc([As]=O)cc2)cc1 (stereo not drawn) | 1.0
* O=C(N[C@@H](C[Se][Se]C[C@H](NC(=O)c1ccc(Br)cc1F)C(=O)O)C(=O)O)c1ccc(Br)cc1F | 0.0
* O=C(N/N=C/c1ccccc1O)c1ccccc1 | 0.0
* C=C(CNCCc1ccc(O)cc1)[C@@H]1CC[C@]2(COC3CCCCO3)CC[C@]3(C)[C@H](CC[C@@H]4[C@@]5(C)CCC(NCCO)C(C)(C)[C@@H]5CC[C@]43C)[C@@H]12 (stereo partly drawn) | 1.0
* Cc1ccc(-c2nc3nc(-c4ccc(F)cc4)nc(N4CCCNCC4)c3o2)cc1 | 0.0

// outcome(item) with item = CCC1=CC2CN(C1)Cc1c([nH]c3ccccc13)[C@@](C(=O)OC)(c1cc3c(cc1OC)N(C)[C@H]1[C@@](O)(C(=O)OC)[C@H](OC(C)=O)[C@]4(CC)C=CCN5CC[C@]31[C@@H]54)C2 (stereo partly drawn)
1.0

// outcome(item) with item = `O=C(Nc1ccc(Cl)c(Cl)c1)NS(=O)(=O)c1cnccc1Oc1ccc(F)cc1`
0.0

// outcome(item) with item = `CCNC(=O)c1noc(-c2cc(C(C)C)c(O)cc2O)c1-c1ccc(CN2CCOCC2)cc1`
1.0

====

system: MDA-MB-231 breast; test: NCI tumour cell line growth inhibition, 48 h
quantity measured: TGI

A selection of reference data follows.
• O=C(c1ccncc1)C1C(=O)c2ccccc2C1C1(O)c2ccccc2CC1C(O)c1ccncc1 (stereo not given) = > 100 µM
• CC(C)(C)OC(=O)NCCCCCCCn1c2c(c3ccccc3c1=O)C(=O)c1ccccc1-2 = > 100 µM
• NC(=O)N/N=C1\CC2C3CC4C2C4C13 (stereo not given) = > 100 µM
• CC(C)OC(=O)OCSc1ccccc1N=Cc1cccc([N+](=O)[O-])c1 = > 10 µM

API: the following record is the query input.
Provide TGI, system MDA-MB-231 breast, entry `CO[C@@H]1O[C@H](C(=O)c2ccccc2)[C@H]2OC(C)(C)O[C@@H]12`
> 100 µM

====

test system: SW-620 colon; assay: NCI tumour cell line growth inhibition, 48 h
molecules and their reported GI50

• Cc1ccc(-c2nc3nc(-c4ccc(F)cc4)nc(N4CCCNCC4)c3o2)cc1 = 742 nM
• CC(C)(C)C(=O)[CH-]C(=O)C(C)(C)C.CC(C)(C)C(=O)[CH-]C(=O)C(C)(C)C.CN(C)c1ccc([O-])cc1.CN(C)c1ccc([O-])cc1.[Ti+4] = > 100000 nM
• CCCCCCCCCCCCCCCC[N+]1(C)CCOCC1 = 2050 nM
• COc1cc(NCCCCCCCNC(C)C)c2nccc(C)c2c1 = 12600 nM

API: the following record is the query input.
Give the measured GI50 for `CC(C)(C)c1cc(C=C(C#N)C#N)cc(C(C)(C)C)c1O`
462 nM

====

compounds and their reported TGI
tested on: 786-0 renal; experiment: NCI tumour cell line growth inhibition, 48 h

A selection of reference data follows.
* CC(=O)/C(=C/c1ccccc1F)C(=O)c1ccccc1 | > 100 µM
* O=C1CSC2=NC3=C(COC/C3=C\c3ccc(Br)cc3)C(c3ccc(Br)cc3)N12 (configuration not stated) | > 100 µM
* CSc1n[nH]c(N)c1C(=O)Nc1ccccc1 | > 100 µM
* CN(C)C(=S)/N=c1\ssc(=S)n1Cc1ccncc1 | 66 µM
* CCOC(=O)C1CCC(=O)N1C(=O)c1ccccc1 (configuration not stated) | > 100 µM
* CC(C(=O)O)C(C)(O)C(=O)O (configuration not stated) | > 100 µM
* COc1cc(NCCCCCCCNC(C)C)c2nccc(C)c2c1 | 28.6 µM
* C/C(=N\NC(=O)CC#N)c1c(O)cc(C)oc1=O | > 100 µM

Provide TGI, system 786-0 renal, entry `O=C(N/N=C/c1ccccc1O)c1ccccc1`
1.83 µM

Provide TGI, system 786-0 renal, entry `O=C(N/N=C/c1cccc(F)c1)c1ccncc1`
> 100 µM

Provide TGI, system 786-0 renal, entry `CCCCn1c(-c2ccc([N+](=O)[O-])cc2)cs/c1=N/N=C1\C(=O)Nc2ccc(Br)cc21`
29.8 µM

Provide TGI, system 786-0 renal, entry `c1c[nH]c(CN2CCOCC2)n1`
> 100 µM

====

tested on: OVCAR-8 ovarian; experiment: NCI tumour cell line growth inhibition, 48 h
molecules and their reported TGI

* Cc1ccc(NC(=O)c2cc(S(=O)(=O)N3C(=O)NC(=O)NS3(=O)=O)c(S)cc2Cl)cc1 | 90.6 µM
* C=C1C(=O)O[C@H]2[C@H]1CC/C(COC(=O)NCC(C)c1ccc(CC(C)C)cc1)=C\CC[C@@]1(C)O[C@@H]21 (some centres not stated) | 6.87 µM
* COc1ccc(CN2C3CC2CN(c2ccc(-c4cc(OCC(C)(C)O)cn5ncc(C#N)c45)cn2)C3)cn1 | > 100 µM
* C=C1C[C@@H]2CC[C@@]34C[C@H]5O[C@H]6[C@@H](O3)[C@H]3O[C@H](CC[C@@H]3O[C@H]6[C@@H]5O4)CC(=O)C[C@@H]3[C@@H](OC)[C@@H](C[C@H](O)CN)O[C@H]3C[C@H]3O[C@@H](CC[C@@H]1O2)C[C@@H](C)C3=C | > 100 µM
* CC(=O)O[C@H]1CCc2c(cc(N)c3c2C(=O)C[C@]2(C)C([C@H](C)CCCC(C)C)CCC32C)C1(C)C (some centres not stated) | > 100 µM
* O=C(O)c1ccccc1/C=N/N=C1c2ccccc2-c2ccccc21 | > 100 µM

Give the measured TGI for `C(=N\Nc1nnn(Cc2ccccc2)n1)/c1ccccc1`
> 100 µM

====

test system: RPMI-8226 leukemia; assay: NCI tumour cell line growth inhibition, 48 h
quantity measured: TGI (µM)
All answers are understood in µM, so give the number only.

A selection of reference data follows.
- COc1ccc2c(c1)/C(=C/c1cc(OC)c(OC)c(OC)c1)C(=O)N2: 1.18
- O=c1c(F)cn(Cc2ccccc2CCl)c(=O)n1Cc1ccccc1CCl: 8.46

API: the following record is the query input.
Provide TGI, system RPMI-8226 leukemia, entry `Cc1cc(I)cc(CN(C)CCCN2CCCC2)c1O`
37.5
